The reported measurements were obtained from PubChem BioAssay (NCI).

Below, each entry is listed with its recorded TGI.
Tested on: NCI-H226 lung
Experiment Description: NCI tumour cell line growth inhibition, 48 h

Answered cases to consult:
[[record]]
molecule = "COc1ccc2c(c1)CC1N(C)CCC13CCCCC23 (stereo unspecified)"
endpoint_name = "TGI"
assay_result = "> 100 µM"

[[record]]
molecule = "Cc1csc2c(=O)n(COCc3ccccc3)c(=O)[nH]c12"
endpoint_name = "TGI"
assay_result = "> 100 µM"

[[record]]
molecule = "CCN(CC)CCNC(=O)C(Cl)=C1C(Cl)=C(Cl)C(Cl)=C1Cl"
endpoint_name = "TGI"
assay_result = "35.8 µM"

[[record]]
molecule = "O=c1[nH]c(-c2ccc(Cl)cc2)cc2ccsc12"
endpoint_name = "TGI"
assay_result = "> 100 µM"

[[record]]
molecule = "Clc1ccc(Nc2ncnc3c2sc2ncccc23)c(Cl)c1"
endpoint_name = "TGI"
assay_result = "> 100 µM"

[[record]]
molecule = "C=CNC(=S)n1nc(-c2ccccc2NC(=O)C(F)(F)F)c(=O)n(C(=S)NC=C)c1=S"
endpoint_name = "TGI"
assay_result = "86.6 µM"

[[record]]
molecule = "Cc1cc2c(C)nn(Cc3ccccc3Cl)c2c(C#N)c1C"
endpoint_name = "TGI"
assay_result = "> 100 µM"

[[record]]
molecule = "CC/C(=C(/CC)c1ccc(O)cc1)c1ccc(O)cc1"
endpoint_name = "TGI"
assay_result = "36 µM"

[[record]]
molecule = "Cc1cc(C)c(C(=O)/C(=C/c2ccccc2)c2ccccc2)c(C)c1"
endpoint_name = "TGI"
assay_result = "> 100 µM"

[[record]]
molecule = "COc1cc(C(=O)N(C(=O)N2CCCCC2)c2ccccc2)cc(OC)c1OC"
endpoint_name = "TGI"
assay_result = "> 100 µM"


Return the recorded TGI value; entry: Cc1ccc(S(=O)(=O)OC2CSSCC2OS(=O)(=O)c2ccc(C)cc2)cc1 (stereo unspecified) 33.6 µM
